biological target: rat CB-1 receptor (Rattus norvegicus, UniProt P20272); construct: The tissue obtained from the brain of SD rats was homogenized; from tissue; host or cells: brain of SD rats (membrane pellet of homogenate); experiment: rat CB-1 receptor binding protocol with [3H]CP-55940; details: [3H]CP-55940, brain tissue of SD rats, 30 °C for 60 min; read-out: IC50
Sequence (P20272 whole entry): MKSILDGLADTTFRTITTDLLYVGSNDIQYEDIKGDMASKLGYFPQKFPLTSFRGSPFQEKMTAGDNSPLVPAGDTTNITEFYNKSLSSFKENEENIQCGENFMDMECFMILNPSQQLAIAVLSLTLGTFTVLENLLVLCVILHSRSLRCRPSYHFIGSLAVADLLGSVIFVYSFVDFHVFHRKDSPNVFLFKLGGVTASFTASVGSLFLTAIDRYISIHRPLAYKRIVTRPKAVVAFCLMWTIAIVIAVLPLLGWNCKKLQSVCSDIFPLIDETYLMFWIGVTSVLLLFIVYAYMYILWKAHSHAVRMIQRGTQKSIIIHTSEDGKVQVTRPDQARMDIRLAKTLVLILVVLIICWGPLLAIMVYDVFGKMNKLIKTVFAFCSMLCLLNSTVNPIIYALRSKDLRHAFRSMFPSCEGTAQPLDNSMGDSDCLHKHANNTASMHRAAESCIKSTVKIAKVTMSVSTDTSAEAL
Criterion: IC50 strictly under 10 nM. Met: t. Not met: f.

# molecule smiles, label value
rows = [
    ("CCc1c(-c2nnc(C3(c4ccc(Cl)cc4)CCC3)o2)nc(-c2ccc(Cl)cc2Cl)n1-c1ccc(Br)cc1", "f"),
    ("Cc1c(-c2nnc(C(C)(C)C)o2)nc(-c2ccc(Cl)cc2Cl)n1-c1ccc(Br)cc1", "t"),
    ("CCc1c(-c2nnc(C3(C(F)(F)F)CC3)o2)nc(-c2ccc(Cl)cc2Cl)n1-c1ccc(Br)cc1", "f"),
    ("CC(C)(C)c1nnc(-c2nc(-c3ccccc3Cl)n(-c3ccc(Br)cc3)c2Cn2cncn2)o1", "f"),
    ("CCc1c(-c2nnc(C3CCCC3)o2)nc(-c2ccc(Cl)cc2Cl)n1-c1ccc(Cl)cc1", "f"),
    ("Clc1ccc(C2(c3nnc(-c4nc(-c5ccc(Cl)cc5Cl)n(-c5ccc(Br)cc5)c4Cn4cncn4)o3)CC2)cc1", "t"),
    ("CCc1c(-c2nnc(C3(C(F)(F)F)CC3)s2)nc(-c2ccc(Cl)cc2Cl)n1-c1ccc(Br)cc1", "f"),
    ("CCCc1c(-c2nnc(C3(c4ccc(Cl)cc4)CC3)s2)nc(-c2ccc(Cl)cc2Cl)n1-c1ccc(Cl)cc1", "t"),
    ("CCc1c(-c2nnc(C3CCC3)o2)nc(-c2ccc(Cl)cc2Cl)n1-c1ccc(Cl)cc1", "f"),
    ("FC(F)(F)C1(c2nnc(-c3nc(-c4ccccc4Cl)n(-c4ccc(Br)cc4)c3Cn3cncn3)s2)CCC1", "t"),
    ("CC(C)(C)c1nnc(-c2nc(-c3ccc(Cl)cc3Cl)n(-c3ccc(Cl)cc3)c2Cn2cncn2)o1", "f"),
    ("Cc1c(-c2nnc(C3(C(F)(F)F)CC3)s2)nc(-c2ccccc2Cl)n1-c1ccc(Br)cc1", "f"),
    ("Clc1ccc(C2(c3nnc(-c4nc(-c5ccccc5Cl)n(-c5ccc(Br)cc5)c4Cn4cncn4)s3)CC2)cc1", "t"),
    ("CCCc1c(-c2nnc(C3CCC3)o2)nc(-c2ccc(Cl)cc2Cl)n1-c1ccc(Br)cc1", "f"),
    ("CCCc1c(-c2nnc(C3(c4ccc(Cl)cc4)CCC3)o2)nc(-c2ccc(Cl)cc2Cl)n1-c1ccc(Cl)cc1", "f"),
]
